assay: chemical genetic growth profiling, strain panel (AID 1159580);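 note: tested at 20 µM; growth read once vehicle control cultures reached saturation at 30 °C; 1 = growth at the plate median or of vehicle wells; lower values mean less growth of the strain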; conditions: S. cerevisiae deletion strains, growth OD, locus YGR040W, strain KSS1, hits give low values
Out of some 5,500 compounds screened, about 2,000 (36%) were called active. About 18% were inconclusive and are not listed. The list shows a part of the results.
reported.property: normalized growth
Form: value (number only, do not type unit).

Returns the measured normalized growth for the input compound. Input: Cc1onc(-c2c(Cl)cccc2Cl)c1C(=O)O/N=C(/N)Cc1ccc(C(C)(C)C)cc1 0.999

Now try Cc1onc(-c2c(F)cccc2Cl)c1/C(N)=N\OC(=O)c1ccc(C(C)(C)C)cc1 . 0.975

Now try Clc1ccc(SCc2ccsc2-c2ncns2)cc1 . 0.946

Now try COC(=O)c1sccc1NS(=O)(=O)c1cc(Cl)cc(Cl)c1 . 0.981

Now try OC(COc1ccc(F)cc1)(c1ccc(Cl)cc1)c1ccc(Cl)cc1 . 0.981

Now try O=S(=O)(Oc1ccc(-c2csnn2)cc1)c1ccccc1Cl . 0.934

Now try COC(=O)C1=C(Nc2ccccc2NS(=O)(=O)c2ccc(C(F)(F)F)cc2Cl)CSC1 . 0.933

====

assay: chemical genetic growth profiling, strain panel (AID 1159580);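 note: tested at 20 µM; growth read once vehicle control cultures reached saturation at 30 °C; 1 = growth at the plate median or of vehicle wells; lower values mean less growth of the strain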; conditions: S. cerevisiae deletion strains, growth OD, locus YDR477W, strain SNF1
Screen size: about 5,500 compounds; about 2,000 (36%) were called active. Inconclusive results (about 18%) are left out. No stated cut-off is given here; in the data, active means normalized growth mostly below about 0.91 (no sharp cut-off); inconclusive means no clear call, values can overlap the other calls; inactive means mostly above about 0.92. The list shows a part of the results.
Lab note: assign the record to one of YES = active, NO = inactive

// param item: Cc1nn(-c2cccc(Cl)c2)c2oc(=O)cc(C(F)(F)F)c12 ; yields the recorded call YES

Now try Cc1onc(-c2c(Cl)cccc2Cl)c1C(=O)O/N=C(/N)Cc1ccc(C(C)(C)C)cc1 . NO

Now try CCOC(=O)/C(C#N)=C(\Nc1ccc(C(=O)OCC)cc1)SC . NO

Now try CC(=O)c1ccc(Cl)c(N=Cc2cc(Br)cc(Br)c2O)c1 . YES

Now try Cc1ccc2nc(-c3ccc4c(c3)OCCO4)cn2c1 . NO

Now try O=S(=O)(Oc1ccc(-c2csnn2)cc1)c1ccccc1Cl . NO

Now try CC(C)(C)c1cc(C(=O)NNc2cccc(Cl)c2)n(Cc2ccccc2)n1 . NO

Now try CSc1sc(C(=O)Sc2ccccc2)cc1S(=O)(=O)C(C)C . NO

Now try O=C(Nc1ccc(F)cc1F)c1cc(Cl)c(-n2cccc2)c(Cl)c1 . NO

Now try CC(=O)c1ccc(Cl)c(N=Cc2cc(Cl)cc(Cl)c2O)c1 . YES

Now try O=C1c2cccc3c(Sc4ccccc4)ccc(c23)C(=O)N1NCCO . NO

Now try CCOC(=O)c1ccc(Cl)c(N=Cc2cc(Cl)cc(Cl)c2O)c1 . YES

Now try O=C(NOC(=O)c1ccccc1)c1ccccc1 . YES

Now try COc1c(Br)csc1C(=O)O/N=C(/N)c1cc(C(F)(F)F)cc(C(F)(F)F)c1 . NO

Now try OC(COc1ccc(F)cc1)(c1ccc(Cl)cc1)c1ccc(Cl)cc1 . NO

Now try O=[N+]([O-])c1cccc(C2CC(c3ccccc3)=Nc3ccccc3S2)c1 (configuration not stated) . NO

Now try COC(=O)C1=C(Nc2ccccc2NS(=O)(=O)c2ccc(C(F)(F)F)cc2Cl)CSC1 . NO

Now try N/C(Cc1cccc2ccccc12)=N/OC(=O)c1ccc(Cl)cc1 . NO

Now try Clc1ccc(CN2CCN(c3cccc4[nH]ccc34)CC2)cc1Cl . NO

Now try O=C(Nc1cccc(Cl)c1)O/N=C1\CCCc2occc21 . NO

Now try Cc1onc(-c2c(F)cccc2Cl)c1/C(N)=N\OC(=O)c1ccc(C(C)(C)C)cc1 . NO

Now try O=S(=O)(Nc1ccccc1Oc1ccccc1)c1ccc(-c2ccno2)s1 . NO

====

assay: chemical genetic growth profiling, strain panel (AID 1159580);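 note: tested at 20 µM; growth read once vehicle control cultures reached saturation at 30 °C; 1 = growth at the plate median or of vehicle wells; lower values mean less growth of the strain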; details: S. cerevisiae deletion strains, growth OD, locus YKL009W, strain mrt4
The whole screen tested about 5,500 compounds, of which about 2,000 (36%) were called active. Not shown: some 18% with an inconclusive outcome. Rule as the data show it: active = normalized growth mostly below about 0.91 (no sharp cut-off); inconclusive = no clear call, values can overlap the other calls; inactive = mostly above about 0.92. Some of the results follow.
Lab note: assign the record to one of Yes = active, No = inactive

// param item: COC(=O)c1c(OC)cc2c(c1C)Oc1c(Cl)c(O)c(Cl)c(C)c1C(=O)O2 ; yields the recorded call No

Now try CC(=O)N[C@@H](Cc1c[nH]c2ccccc12)C(N)=O . No

Now try COc1ccc([C@@H]2CC(=O)c3c(O)cc(O[C@@H]4O[C@H](CO[C@H]5O[C@@H](C)[C@H](O)[C@@H](O)[C@H]5O)[C@@H](O)[C@H](O)[C@H]4O)cc3O2)cc1O . No

Now try CCOC(=O)[C@H](CCc1ccccc1)N[C@@H](C)C(=O)N1CCC[C@H]1C(=O)O . No

Now try COC(=O)c1c(C)c2c(c(C)c1O)OC(=O)c1c(C)c(Cl)c(O)c(Cl)c1O2 . No

Now try N=C(N)N . No

Now try NC(=O)NC(=O)Cc1ccccc1 . No

Now try O=C(OCc1ccccc1)c1ccccc1 . No

Now try COc1c(C)c2c(c(C)c1Cl)Oc1c(Cl)c(OC)c(Cl)c(C)c1C(=O)O2 . No

Now try COC(=O)c1c(C)c2c(c(C)c1OC)OC(=O)c1c(C)c(Cl)c(OC)c(Cl)c1O2 . Yes

Now try NCC(N)C(=O)c1ccccc1 (stereo unspecified) . No

====

assay: chemical genetic growth profiling, strain panel (AID 1159580);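 note: tested at 20 µM; growth read once vehicle control cultures reached saturation at 30 °C; 1 = growth at the plate median or of vehicle wells; lower values mean less growth of the strain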; details: S. cerevisiae deletion strains, growth OD, locus YOR316C, strain cot1, hits give low values
Among all 5,500 compounds or so, about 2,000 (36%) were called active. About 18% were inconclusive and are not listed. The list shows a part of the results.
Hi there, I'd appreciate the recorded normalized growth for every entry that follows.

Returns the measured normalized growth for the input compound. Input: C=C(C)C1CCC(C)(O)C2CC3OC3(C)C2C1 (configuration not stated) 1.01 (inactive)

Now try CS(=O)(=O)c1ccc([C@@H](O)[C@@H](CO)NC(=O)C(Cl)Cl)cc1 . 0.975 (inactive)

Now try Cc1c(C)c2c(c(C)c1O)CCC(C)(CCCC(C)CCCC(C)CCCC(C)C)O2 (configuration not stated) . 0.995 (inactive)

Now try OC[C@H]1O[C@@H](O[C@H]2[C@H](O)[C@@H](O)[C@@H](O)O[C@@H]2CO)[C@H](O)[C@@H](O)[C@@H]1O . 1.02 (inactive)

Now try O=C(O)c1cccnc1 . 0.998 (inactive)

Now try CN(C)CCCN1c2ccccc2Sc2ccc(C(F)(F)F)cc21 . 0.965 (inactive)

Now try CC12CCC(O)CC1CCC1C2[C@H](O)CC2(C)C(C3=CC(=O)OC3)CCC12O (some centres not stated) . 0.995 (inactive)

Now try O=C(O)c1ccc(S(=O)(=O)N(Cl)Cl)cc1 . 1.02 (inactive)

Now try Nc1ccc(S(=O)(=O)NC(=O)c2ccccc2)cc1 . 1 (inactive)

Now try CCN(CC)CCOC(=O)C1(C2CCCCC2)CCCCC1 . 0.992 (inactive)

Now try CN(C)C1C(=O)C(C(N)=O)=C(O)C2(O)C(=O)C3=C(O)c4c(O)ccc(Cl)c4C(C)(O)C3CC12 (configuration not stated) . 0.971 (inactive)

Now try CC(=O)O[C@@H]1CC2C(C)(C)C(=O)C=C[C@]2(C)C2CC[C@]3(C)C(=CC(=O)O[C@H]3c3ccoc3)[C@@]21C (some centres not stated) . 0.981 (inactive)

Now try COC(=O)c1c(C)c2c(c(C)c1O)OC(=O)c1c(C)c(Cl)c(O)c(Cl)c1O2 . 1 (inactive)

Now try NC1=NCCN1CC(=O)O . 0.989 (inactive)

Now try CCC(C)C(=O)OC1[C@@H]2CC3=C4CC(=O)O[C@@H](c5ccoc5)[C@]4(C)CCC3[C@@](C)(C2=O)[C@@H](CC(=O)OC)C1(C)C (some centres not stated) . 1 (inactive)

Now try CC(=O)N[C@@H](Cc1c[nH]c2ccccc12)C(N)=O . 1 (inactive)

Now try CN(C)[C@@H]1C(=O)C(C(N)=O)=C(O)[C@@]2(O)C(=O)C3=C(O)c4c(O)ccc(Cl)c4[C@@H](O)[C@H]3C[C@@H]12 . 0.982 (inactive)

Now try CC(N=C(NC#N)Nc1ccncc1)C(C)(C)C (configuration not stated) . 1.02 (inactive)

Now try COC(=O)c1c(OC)cc2c(c1C)Oc1c(Cl)c(OC(C)=O)c(Cl)c(C)c1C(=O)O2 . 1 (inactive)

Now try C[C@H](CCC(=O)O)[C@H]1CCC2C3C(=O)CC4CC(=O)CC[C@]4(C)C3CC(=O)[C@@]21C (some centres not stated) . 1.01 (inactive)

Now try OC[C@H]1O[C@@H](O[C@@H]2[C@@H](CO)O[C@](O)(CO)[C@H]2O)[C@H](O)[C@@H](O)[C@H]1O . 0.976 (inactive)

Now try CC(=O)O[C@@H]1C=C[C@@]2(C)C(C[C@@H](OC(C)=O)[C@@]3(C)C4=CC(=O)O[C@@H](c5ccoc5)[C@]4(C)CCC23)C1(C)C (some centres not stated) . 0.0594 (active)

Now try CN(C)c1ccc(O)c2c1C[C@H]1C[C@H]3[C@H](N(C)C)C(=O)C(C(N)=O)=C(O)[C@@]3(O)C(=O)C1=C2O . 0.998 (inactive)

Now try CC(=O)Oc1c(Cl)c(C)c2c(c1Cl)OC(=O)c1c(C)c(Cl)c(OC(C)=O)c(Cl)c1O2 . 1.01 (inactive)

Now try COC(=O)c1c(C)c2c(c(C)c1OC)OC(=O)c1c(C)c(Cl)c(OC)c(Cl)c1O2 . 1.02 (inactive)

Now try CN(C)CCCN1c2ccccc2Sc2ccc(Cl)cc21 . 1 (inactive)

Now try CN(C)[C@@H]1C(=O)C(C(N)=O)=C(O)[C@@]2(O)C(=O)C3=C(O)c4c(O)ccc(Cl)c4[C@@](C)(O)[C@H]3C[C@@H]12 . 1.01 (inactive)

Now try CC(=O)O[C@H]1CCC2(C)C3=C(CCC2C1(C)C)[C@@]1(C)CC[C@@H](C(C)CCC=C(C)C)[C@]1(C)CC3 (some centres not stated) . 1.06 (inactive)

Now try CCN(CC)CCOC(=O)C(c1ccccc1)C1CCCCC1 (configuration not stated) . 0.955 (inactive)

Now try C=C1C[C@]23C[C@@]1(O)CC[C@H]2[C@@]12C=C[C@H](O)[C@@](C)(C(=O)O1)[C@H]2[C@@H]3C(=O)O . 0.984 (inactive)

Now try CC(=O)O[C@@H]1CC2C(C)(C)[C@H](O)C=C[C@]2(C)C2CC[C@]3(C)C(=CC(=O)O[C@H]3c3ccoc3)[C@@]21C (some centres not stated) . 0.999 (inactive)

Now try COC(=O)c1c(OC)cc2c(c1C)Oc1c(Cl)c(O)c(Cl)c(C)c1C(=O)O2 . 0.933 (inactive)

Now try C=C1c2cccc(O)c2C(O)=C2C(=O)[C@]3(O)C(O)=C(C(N)=O)C(=O)[C@@H](N(C)C)[C@@H]3[C@@H](O)[C@H]12 . 0.988 (inactive)

Now try O=C(NCO)c1cccnc1 . 0.997 (inactive)

Now try CC1(C)CC2C1CC[C@]1(CBr)CCC3C(CC(=O)O)C(=O)O[C@@]32C1 (some centres not stated) . 1 (inactive)

Now try CC(C)=CCc1c2c(c3occ(-c4ccc(O)c(O)c4)c(=O)c3c1O)C=CC(C)(C)O2 . 0.848 (active)

Now try CC12CCC3C(CC3(C)C)C(C)(CCC1=O)O2 (configuration not stated) . 1.02 (inactive)
